test system: CCRF-CEM; assay: NCI tumour cell line growth inhibition, 48 h
Active and inactive are the calls of the source. Cut-off read from the data, not from the text of the source: active = GI50 up to about 1.1 µM and inactive = higher.
Provide the recorded GI50 for the entries that follow.

I have this compound here, `CN1CCN(C(=S)N(C(=O)c2ccc(Cl)cc2)c2ccccc2)CC1` , and I need its recorded GI50. > 10 µM (inactive)

Would you mind doing CC1(C=O)CC(CCc2ccccc2)NC1Cc1ccc(O)cc1 (centres undefined) as well? 20.2 µM (inactive)

Here is the next compound: CC(CCC(=O)O)c1ccc(Br)cc1 (centres undefined) > 100 µM (inactive)

Okay, and Nc1ccc(C(=O)CC2(O)C(=O)Nc3c(Cl)cc(Cl)cc32)cc1 (centres undefined) ? 16.4 µM (inactive)

Repeat for the following compound: `O=c1c2c(nc3n1CCC3)sc1c(O)c(Br)ccc12` 15.5 µM (inactive)

Request: `NC(=O)NC(=O)c1cccc(NC(=O)CF)c1` > 100 µM (inactive)

`O=C1c2scc(-c3ccccc3)c2-n2cccc21` ? 19.7 µM (inactive)

Try this compound too: `Clc1cc(C(c2cc(Cl)sc2Cl)c2cc(Cl)sc2Cl)c(Cl)s1` > 100 µM (inactive)

Next record, please: `COc1ccc(-c2nc3ncccn3c2-c2ccc(S(C)(=O)=O)cc2)cc1` > 100 µM (inactive)

Okay, and `O=C(OCCOCBr)c1ccccc1` ? > 100 µM (inactive)

Same question, `O=C(OCc1ccccc1)N1CCNCCNCC1` this time > 100 µM (inactive)

Please do the same for `COc1cc(/C=C/c2ccc(O)c(OC)c2)cc(OC)c1` as well. 14.4 µM (inactive)

// query: `O=C(Nc1cccc2ccccc12)Nn1cnnc1` > 100 µM (inactive)

Another: `COc1ccc([Se][Se]c2ccc(OC)cc2OC)c(OC)c1` 2.08 µM (inactive)

Further, for `C/C(=N\NC(N)=O)c1sc(-c2nc(C)c(/C(C)=N/NC(N)=O)s2)nc1C` ? 90.4 µM (inactive)

Request: OCC(O)COCn1cc(Cn2ncc3c(SCc4ccccc4)ncnc32)nn1 (centres undefined) > 100 µM (inactive)

Now the compound `COc1ccc(-n2cnc3c2=NC(C)(C)NC=3C(N)=O)c(OC)c1` > 100 µM (inactive)

`C/N=C(\N)c1ccc(NC(=N)c2ccc(C(=N)Nc3ccc(/C(N)=N/C)cc3)cc2)cc1` , same question. > 100 µM (inactive)

Item: `Nc1nc(N)nc(-c2cnccn2)n1` > 100 µM (inactive)

What about this compound? O=C1C=CC(=O)C2=C1[C@@H](O)C1CC=CC3C(=O)O[C@@H]2C31 (some centres undefined) 8.2 µM (inactive)

// repeat for CC1(c2cccc3ccccc23)OC(=O)c2ccccc21 (centres undefined) and report 14.3 µM (inactive)

`Cn1c(-c2ccc(-c3cc(-c4cccs4)c(-c4cccs4)n3C)cc2)cc(-c2cccs2)c1-c1cccs1` ? > 100 µM (inactive)

Now the compound `O=C(Nc1cccc(C(=O)NCCCO)c1)/C(=C/c1ccccc1)NC(=O)c1ccccc1` > 100 µM (inactive)

What about this compound? `NNC(=O)c1nn[nH]c1SSc1[nH]nnc1C(=O)NN` > 100 µM (inactive)

====

test system: ACHN; experiment: NCI tumour cell line growth inhibition, 48 h
Calls of active or inactive are those of the source. Cut-off read from the data, not from the text of the source: active = GI50 up to about 1.1 µM and inactive = higher.
parameter: GI50

Field request: GI50 | item: `NCCn1cnc2nc(NC(=O)c3ccccc3)[nH]c(=O)c21` > 100 µM (inactive)

Thanks! And O=C1NC(N2CCCC(CO)C2)=N/C1=C\c1ccc(Cl)cc1 (configuration not stated) ? > 100 µM (inactive)

What do we get for CCCC/C=C/C1Cc2ccccc2CN1S(=O)(=O)c1ccc(C)cc1 (configuration not stated) ? 5.24 µM (inactive)

Again, but for O=C1NC(c2ccc3ccccc3c2)Nc2ccccc21 (configuration not stated) 48.1 µM (inactive)

Same thing, different compound: `COc1cc2c(c(OC)c1OC)[C@@H]1CCCCC[C@@H]1CCC2=O` > 100 µM (inactive)

Follow-up entry: CC(C)(C)OC(=O)NC1CCCC1=O (configuration not stated) > 100 µM (inactive)

Follow-up entry: `C=CS(=O)(=O)CCN1CC1` > 10 µM (inactive)

What would you report for `N/N=C(/Cc1nc2ccc(C(=O)c3ccccc3)cc2nc1O)C(=O)Nc1ccc([N+](=O)[O-])cc1[N+](=O)[O-]` ? > 10 µM (inactive)

Request: `Nn1c(=O)[nH]c2ncn(Cc3ccccc3)c2c1=O` > 100 µM (inactive)

Moving on to the next compound: C=C(C)CC1(O)C(=O)C(OCC)=C1OCC (configuration not stated) > 100 µM (inactive)

Cool, now `Cn1ccc(C(=O)NCCCCCNC(=O)c2ccn(C)c(=O)c2O)c(O)c1=O` > 100 µM (inactive)

Try `Cc1ncc([N+](=O)[O-])n1CCN(C)C(=O)CCCn1ccnc1[N+](=O)[O-]` next. > 100 µM (inactive)

Continue with CC(C)N(C(=O)C12C3C4C5C3C1(C(=O)N(C(C)C)C(C)C)C5(C#N)C42)C(C)C (configuration not stated) > 100 µM (inactive)

How about `CN(C)c1ccc(-c2c(C#N)c(S)n(NS(=O)(=O)c3ccccc3)c(=O)c2C#N)cc1` ? 26.8 µM (inactive)

# repeat for `CCOc1cc2ccc3c4cc(OC)c(OC)cc4cnc3c2cc1OCC` > 100 µM (inactive)

Moving on to Cc1ccc(-n2cc(-c3ccc(Cl)cc3)c3c2N=CN2N=C(c4cccs4)NC32)cc1 (configuration not stated) 5.07 µM (inactive)

For `CC(C)c1cccc(C(C)C)c1OS(=O)(=O)NC(=O)OC(C(F)(F)F)C(F)(F)F` then? 37.1 µM (inactive)

Then COC1(C)CP(=O)(OC(C)C)CC(C)=C1Cl (configuration not stated) ? 18.4 µM (inactive)

Cool, now C[C@]12Cc3conc3C(O)=C1CC[C@@H]1C2CC[C@@]2(C)C1CC[C@@H]2O (some centres not stated) 23.3 µM (inactive)

Now give it for `CC(=O)N(C(C)=O)n1nc2c(n1)C(=O)c1ccccc1C2=O` too. > 100 µM (inactive)

// same read-out, input: `O=C(CCC(=O)Nc1ccc(Cl)c(Cl)c1)Cc1nc2ccccc2o1` > 100 µM (inactive)

Follow-up item: CC(C)C(Nc1c2ccccc2[n+](C)c2ccccc12)C(=O)O (configuration not stated) > 100 µM (inactive)

====

tested on: K562; assay: NCI tumour cell line growth inhibition, 48 h
The source made the active and inactive calls. No stated cut-off is given here; in the data, active = GI50 up to about 1.1 µM and inactive = higher.
parameter: GI50

What value of GI50 has been recorded for this entry: COP(=O)(C(/C=C/c1ccccc1)OC(C)=O)[C@@H]1CCCC[C@H]1N(CC(C)(C)C)C(C)=O (stereo partly specified) 22.4 µM (inactive)

What about `CCOC(=O)C(=O)Nc1cccc(C)c1C` ? > 100 µM (inactive)

Follow-up entry: `Cc1nc2[nH]ncn2c(=O)c1CCO` > 10 µM (inactive)

Okay, and c1ccc(N2N=NC3C4CC(C5c6ccccc6C45)C32)cc1 (stereo unspecified) ? 36.1 µM (inactive)

Thanks! And `CCN(CC)CCOc1ccc(N2Cc3ccccc3C2=O)cc1` ? > 10 µM (inactive)

Query `NC1=Nc2ccccc2Sc2nc3ccccc3n21` next 9.38 µM (inactive)

Also need `O=C(OCCOCBr)c1ccccc1` , thanks. > 100 µM (inactive)

Field entry: `c1ccc(/N=C2\c3ccccc3CN2c2ccccn2)nc1` 65 µM (inactive)

Can you check `c1nc2cscc2c2cscc12` next? > 100 µM (inactive)

Do the same for CCOP(=O)(OCC)C1=C(c2ccccc2)OC(N)=C(C#N)C1c1ccc(Cl)cc1 (stereo unspecified) please > 100 µM (inactive)

Next: `CNC(=O)N(C)C(=O)c1ccccc1C(=O)N(C)C(=O)NC` > 10 µM (inactive)

Do the same for `Clc1cc(C(c2cc(Cl)sc2Cl)c2cc(Cl)sc2Cl)c(Cl)s1` please > 100 µM (inactive)

Similarly, `CC1(C)N=c2[nH]cnc2=C(C(N)=O)N1` ? > 100 µM (inactive)

Same question for CC/C=C/c1cc2c(cc1O)CCC1C2CC[C@@]2(C)C1CC[C@@H]2O (stereo partly specified) please. 1.28 µM (inactive)

Now the compound `C/C(=N\NC(N)=O)c1sc(-c2nc(C)c(/C(C)=N/NC(N)=O)s2)nc1C` 53.8 µM (inactive)

Here is the next compound: `N#C/C(=C\c1ccccc1)c1nc(-c2cc3ccccc3oc2=O)cs1` > 100 µM (inactive)

Please give the result for `[O-][N+]1=C(c2ccccc2)COc2ccccc21` too. > 100 µM (inactive)

Likewise for CN1C(=O)CC2(C)c3cc(O)ccc3N(C)C12 (stereo unspecified) ? 18.5 µM (inactive)

What would you report for `C=C1C(=O)O[C@@H]2[C@H]3O[C@]3(C)CCC=C(C)CC[C@@H]12` ? 21.8 µM (inactive)

Also need `Cc1ccc(/N=C2\C(=O)C3=C(OC(C)(C)CC3)c3ccccc32)cc1` , thanks. 0.197 µM (active)

Another compound to look at: COc1ccc2c(c1)CC[C@@H]1C2CC[C@]2(C)C(=O)N(N)C(=O)CC12 (stereo partly specified) 32.6 µM (inactive)

Queued: `CC(=O)/N=C1/N(/C=C2\C(=O)Oc3ccccc3C2=O)C(=O)/C(=C/c2ccc(NC(C)=O)cc2)N1C` > 100 µM (inactive)

And the next one, CCCn1cc2c3c(cccc31)C1C=C(C)CN(C)C1C2 (stereo unspecified) ? 2.56 µM (inactive)

For OCC(O)COCn1cc(Cn2ncc3c(SCc4ccccc4)ncnc32)nn1 (stereo unspecified) then? > 100 µM (inactive)

Continue with CC(=O)c1ccccc1NC(=O)C(=O)C(C(=O)c1ccc2ccccc2c1)C1OC(=O)c2ccccc21 (stereo unspecified) 9.04 µM (inactive)

# iterate: `CC(=O)N(C)c1ccc(/N=C/N(C)C)cc1` > 100 µM (inactive)

Param item: C=C(c1ccccc1)C1(O)CCCCC1N (stereo unspecified) > 100 µM (inactive)

Okay, and `C1=C\SS/C=C\SS/C=C\SS/C=C\SS/1` ? 27.9 µM (inactive)

Would you kindly repeat that for COc1cc(O)c2c(=O)cc(C3(OC(C)=O)C=CC(OC4OC(CO)C(O)C(O)C4O)C=C3)oc2c1 (stereo unspecified) ? > 100 µM (inactive)

What do you have for `NC(=S)N1N=C2c3ccccc3CC[C@H]2[C@@H]1c1cccs1` ? 7.69 µM (inactive)

Continue with `S=C(Nc1ccc(Br)cn1)NC12CC3CC(CC(C3)C1)C2` > 100 µM (inactive)

Another compound to check: `O=C(O)c1cnc2[nH]ccn2c1=O` > 100 µM (inactive)

Would you mind doing `NC(=O)NC(=O)c1cccc(NC(=O)CF)c1` as well? > 100 µM (inactive)

`C=COCCCOc1ccccc1` ? > 100 µM (inactive)

Same lookup for `COc1ccc(-c2nc3ncccn3c2-c2ccc(S(C)(=O)=O)cc2)cc1` , please. > 100 µM (inactive)

How about this compound: `Cc1nc2c(n1-c1ccc(Br)cc1)C(=O)c1ccccc1C2=O` 1.33 µM (inactive)

For `COCCc1c(C)c(C#N)c2n(C)c3ccccc3n2c1=O` then? 0.566 µM (active)

Further, for `Cc1ccc(C(=O)Nc2ccc(CP(=O)(O)O)cc2CP(=O)(O)O)cc1N` ? > 100 µM (inactive)

Param item: `O=[N+]([O-])/C(C(Cl)=C(Cl)Cl)=C(/Nc1cccc2cccnc12)n1nnc2ccccc21` 6.41 µM (inactive)

Try this compound next: `C=CC[C@@]1(C#N)C[C@H](C[C@]2(C#N)C[C@H](CCl)OC(C)(C)O2)OC(C)(C)O1` 53 µM (inactive)

Next up: O=C1OC([C@H](O)c2cccnc2)c2ccccc21 (stereo partly specified) > 10 µM (inactive)

# repeat for `C=C1c2nc3ccccc3n2C=C(c2ccccc2)N1c1ccc([N+](=O)[O-])cc1` 7.35 µM (inactive)

Ok, now `CCOC(=O)c1ccc(C(=O)/C(C#N)=C2\CCCN2)n1C` 13.3 µM (inactive)

Then what about the compound `CCc1c(-c2ccccc2)[nH]c2ccccc2c1=O` ? 28.6 µM (inactive)

Now give it for Nc1ccc(C(=O)CC2(O)C(=O)Nc3c(Cl)cc(Cl)cc32)cc1 (stereo unspecified) too. 40.1 µM (inactive)

Next record, please: `Nn1c(=O)[nH]c2ncn(Cc3ccccc3)c2c1=O` > 100 µM (inactive)
